Task for the reader: assign each of the following molecules its reported GI50.
- Test system: MA93 Ras cells
- Assay name: Proliferation assay
- Type: cell-based
- Condition details: Homo sapiens, MA9.3RAS, 72 h

Some entries whose results are on file:
Cc1nc(F)ccc1-c1cc(Cn2ccn(C)c2=N)cc(C(=O)NCc2ccc(Cl)c(Cl)c2)c1; 20.8 µM
COc1cc(CNC(=O)c2cccc(CNC3=NCCN3)c2F)cc(OC)c1; > 50 µM
Cc1nc(F)ccc1-c1cc(C(=O)NCc2ccc(Cl)c(Cl)c2)ccc1Cn1ccn(C)c1=N; > 50 µM

Below: the item to evaluate.
Form field, GI50 with MA93 Ras cells, item `COc1cc(CNC(=O)c2ccc(F)c(CNC3=NCCN3)c2)cc(OC)c1` : > 50 µM
